Each record here notes measured yeast surface expression.
B1: scFv; the commonest letter at each place (parent)
chain 1: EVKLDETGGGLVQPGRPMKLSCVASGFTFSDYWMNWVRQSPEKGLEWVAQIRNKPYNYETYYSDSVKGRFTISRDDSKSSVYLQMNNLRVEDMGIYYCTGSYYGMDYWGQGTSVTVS
chain 2: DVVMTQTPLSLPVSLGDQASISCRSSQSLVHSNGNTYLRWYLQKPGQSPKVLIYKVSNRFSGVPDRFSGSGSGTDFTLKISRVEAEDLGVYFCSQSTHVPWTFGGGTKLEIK

# Variants of: B1
# test.protocol: yeast surface expression (ratio to wild type); higher = more expressed
# condition.details: format: scFv 4-4-20, heavy + light
Give the figure by itself; no unit, no explanation.

Below, 5 variants whose answers are already recorded.
{"sequence.variant": "chain 1 Y103L Y107D", "observed.value": 0.471}
{"sequence.variant": "chain 1 S101G Y102L", "observed.value": 1.06}
{"sequence.variant": "chain 1 T28A D31W", "observed.value": 0.862}
{"sequence.variant": "chain 1 S101L Y103Q", "observed.value": 0.786}
{"sequence.variant": "chain 1 G100D W108R", "observed.value": 0.146}

Qu. Look at this variant and give its reported yeast surface expression. chain 1 W33N N35T
Ans. 0.979

Qu. Form field: reported yeast surface expression of chain 1 Y102T G104W
Ans. 0.638
